All figures here come from paper PMC10360995.

# assayed-target: ABL^Q252H (Homo sapiens, UniProt P00519, Q252H)
# test-summary: ABL mutant enzymatic assay
# recorded-conditions: 10-dose, 3-fold dilution from 20 μM, 10 μM ATP
reported-endpoint: IC50 (nM)
# unit: nM | format: bare number

Looking up CCN1CCN(Cc2ccc(NC(=O)c3cccc(C#Cc4cccc5[nH]nc(N)c45)c3)cc2C(F)(F)F)CC1 , I found its IC50 recorded as 3.88
